Assay: Hepatocyte stability assay, mouse cryopreserved hepatocytes
Assay type: in vitro ADME
Details: cryopreserved hepatocytes; Mouse hepatocytes, 10 μM, 60 min; class symbols; read-out: T½
metric: half-life at 10 μM

Examples with their reported half-life at 10 μM follow.
C=C(Cc1nc(Cc2ccc(OC(F)(F)F)cc2)no1)C(=O)OCC(=O)O [Example 20] = 5 to 11 min
C=C(Cc1nc(Cc2ccc(CCCC)cc2)no1)C(=O)OCCC(=O)O [Example 15] = ≤ 4 min
C=C(Cc1nc(CCCCCCCC)no1)C(=O)O[C@H](CC(=O)O)C(F)(F)F [Example 5] = ≤ 4 min
C=C(Cc1nc(C2(c3ccc(C(F)(F)F)cc3)CC2)no1)C(=O)OCC(=O)O [Example 4] = 5 to 11 min
C=C(Cc1nc(CCCCCCCC)no1)C(=O)OCC(=O)O [Example 1] = ≤ 4 min
C=C(Cc1nc(Cc2ccc(CCCC)cc2)no1)C(=O)O[C@@H](CC(=O)O)C(F)(F)F [Example 10] = ≤ 4 min
C=C(Cc1nc(CCCCCCCC)no1)C(=O)OCCC(=O)O [Example 2] = ≤ 4 min
C=C(Cc1nc(C2(c3ccc(OC(F)(F)F)cc3)CC2)no1)C(=O)OCC(=O)O [Example 19] = 5 to 11 min

// next entry
Quick check: half-life at 10 μM of C=C(Cc1nc(Cc2ccc(CCCC)cc2)no1)C(=O)OCC(=O)O [Example 13] ? ≤ 4 min

----------
Recorded Emax, one value per entry.
Test system: NRF2
Assay: NRF2 activation assay (DiscoverX PathHunter NRF2 translocation kit, U2OS cells)
Format: cell-based
Details: Homo sapiens, 6 hours, normalised to DMF high control, class symbols

Answered cases to consult:
C=C(Cc1nc(C2(c3ccc(OC(F)(F)F)cc3)CC2)no1)C(=O)OCC(=O)O [Example 19] = 166 to 250%
C=C(Cc1nc(Cc2ccc(CCCCC)cc2)no1)C(=O)O[C@@H](CC(=O)O)C(F)(F)F [Example 12] = 166 to 250%
C=C(Cc1nc(Cc2ccc(Cl)cc2)no1)C(=O)OCC(=O)O [Example 3] = 135 to 165%

What does the data say about its Emax? Entry: C=C(Cc1nc(C2(c3ccc(C(F)(F)F)cc3)CC2)no1)C(=O)O[C@@H](CC(=O)O)C(F)(F)F [Example 8] 135 to 165%

----------
Test system: NRF2
Assay: NRF2 activation assay (DiscoverX PathHunter NRF2 translocation kit, U2OS cells)
Format: cell-based
Conditions: Homo sapiens, 6 hours, normalised to DMF high control, class symbols
Attribute: Emax

Please review the following examples before continuing.
C=C(Cc1nc(CCCCCCCC)no1)C(=O)OCC(=O)O = 135 to 165%
C=C(Cc1nc(Cc2ccc(CCCC)cc2)no1)C(=O)OCC(=O)O = 166 to 250%

# input for lookup
# input compound: C=C(Cc1nc(Cc2ccc(CCCC)cc2)no1)C(=O)OCCc1nnn[nH]1 ; wanted: its Emax 135 to 165%

----------
System: IL-1β
Experiment: THP-1 AlphaLISA IL-1β cytokine inhibition assay (differentiated THP-1 cells)
Assay type: cell-based
Conditions: LPS 24 hr then Nigericin 1 hour, numeric values
metric: IC50

Which IC50 value is on record for C=C(CC(=O)OCCCCCCCC)C(=O)O [4-octyl itaconate, reference compound] ? 33 µM

Data credit: patent US12459908B2
